Origin of values: BindingDB's records for doi:10.7270/Q25H7DV5

The following are reported IC50 results, target or system UniProt Q9HC16.
Sequence (Q9HC16 whole entry): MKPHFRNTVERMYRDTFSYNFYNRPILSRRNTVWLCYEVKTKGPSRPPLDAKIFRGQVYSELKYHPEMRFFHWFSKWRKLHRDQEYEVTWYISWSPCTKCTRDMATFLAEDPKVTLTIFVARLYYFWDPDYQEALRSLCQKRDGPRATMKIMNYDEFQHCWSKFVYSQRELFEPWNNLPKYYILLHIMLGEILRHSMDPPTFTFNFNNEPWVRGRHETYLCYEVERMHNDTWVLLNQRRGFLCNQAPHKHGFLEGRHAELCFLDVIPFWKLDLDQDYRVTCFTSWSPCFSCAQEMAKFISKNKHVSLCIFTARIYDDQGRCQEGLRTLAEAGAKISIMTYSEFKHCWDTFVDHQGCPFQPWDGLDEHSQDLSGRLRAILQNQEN

CCN1C(SCC(=O)NCc2ccco2)=NNC1=C1C=CC=CC1=O; > 99 µM

Let us move to another entry and its IC50.
Task item: Which IC50 is reported for this compound? "CC1(C)Oc2ccc3ccc(=O)oc3c2C(CN=O)=C1Cl"
Reply: > 99 µM
